Target: Peroxisome proliferator-activated receptor gamma (Homo sapiens) (UniProt P37231)
Sequence (P37231 whole entry, looked up): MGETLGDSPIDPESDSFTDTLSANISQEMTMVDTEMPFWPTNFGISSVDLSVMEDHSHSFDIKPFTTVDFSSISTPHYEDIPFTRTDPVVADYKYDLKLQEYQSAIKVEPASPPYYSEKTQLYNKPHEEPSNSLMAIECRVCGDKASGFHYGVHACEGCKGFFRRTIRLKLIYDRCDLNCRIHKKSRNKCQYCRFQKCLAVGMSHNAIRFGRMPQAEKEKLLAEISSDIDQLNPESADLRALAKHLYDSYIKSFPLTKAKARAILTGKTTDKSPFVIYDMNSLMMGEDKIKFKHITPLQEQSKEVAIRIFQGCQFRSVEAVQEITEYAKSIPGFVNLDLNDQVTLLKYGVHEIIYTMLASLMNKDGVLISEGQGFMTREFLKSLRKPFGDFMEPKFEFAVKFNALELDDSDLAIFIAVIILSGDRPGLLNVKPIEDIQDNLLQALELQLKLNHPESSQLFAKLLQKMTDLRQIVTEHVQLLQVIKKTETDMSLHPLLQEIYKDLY
Assay: qHTS assay to identify small molecule agonists of the peroxisome proliferator-activated receptor gamma (PPARg) signaling pathway (AID 743094); also: % is scaled to controls: 0 for no effect and ±100 for the full control effect
Conditions: HEK293H PPARg-UAS-bla, beta-lactamase FRET ratio, 17 h; series mostly up to 57 µM
Source text: U.S. Tox21 Program National Center for Advancing Translational Sciences [NCATS] NIH Chemical Genomics Center [NCGC] U.S. Environmental Protection Agency [EPA] National Institutes of Environmental Health Sciences [NIEHS] National Toxicology Program [NTP] U.S. Food and Drug Administration [FDA] […]
Results filed as inconclusive are left out. Activity calls are given as the source filed them. Calls follow the shape of the dose curve; as a rule, active = well fitted activation curve with a large enough effect in the signal ratio in the repeat runs (not every such curve was filed as active); inconclusive = weak or mixed curves, or effect the other way; inactive = no such curve, though single readings can be large or run the other way; the % refers to the signal ratio.
Bench note: report the call from 1 (active), 0 (inactive)

Example entries begin here.
Cc1ccc(-c2cc(C(F)(F)F)nn2-c2ccc(S(N)(=O)=O)cc2)cc1 :: 0
Cc1cc(OCCOCC[N+](C)(C)Cc2ccccc2)ccc1C(C)(C)CC(C)(C)C :: 0
CCn1c2ccccc2c2cc(N)ccc21 :: 0
CCc1cc(C(C)(C)C)c(O)c(C(C)(C)C)c1 :: 0
CCC[C@H](N[C@@H](C)C(=O)N1[C@H](C(=O)O)C[C@@H]2CCCC[C@@H]21)C(=O)OCC :: 0

Recorded test call requested for `NC(=Nc1ccccc1)Nc1ccccc1`
0

Recorded test call requested for `C=CS(=O)(=O)O`
0

Recorded test call requested for BrC1CCC(Br)C(Br)CCC(Br)C(Br)CCC1Br (configuration not stated)
0

Recorded test call requested for CCC(C)(Oc1ccc(C2(c3ccc(OC(C)(CC)C(=O)O)cc3)CCCCC2)cc1)C(=O)O (configuration not stated)
0

Recorded test call requested for `c1ccc2n[nH]nc2c1`
0

====

Experiment: qHTS assay for small molecule agonists of the p53 signaling pathway (AID 651631); also: nearly all actives have a fitted effect of over 15% in size
Details: HCT-116 p53RE-bla reporter, beta-lactamase FRET ratio, 16 h; series mostly up to 73.3 µM
Results filed as inconclusive are left out. Active and inactive are the calls of the source. Calls come from the whole dose curve.
Bench note: report the call from label 1 = active, label 0 = inactive

Cc1cccc([N+](=O)[O-])c1C(=O)O :: label 0
C=CS(=O)(=O)O :: label 0
CC1=CC(=O)c2ccccc2C1=O :: label 1
O :: label 0
C=C(C)C(=O)O :: label 0
CCC[C@H](N[C@@H](C)C(=O)N1[C@H](C(=O)O)C[C@@H]2CCCC[C@@H]21)C(=O)OCC :: label 0
Cc1occc(=O)c1OC(=O)C(C)C :: label 0
CCCC(=O)c1ccccc1 :: label 0
CC[C@@H](N)CO :: label 0
CC(C)(C)NCC(O)c1cc(O)cc(O)c1 (configuration not stated) :: label 0

Recorded test call requested for CC1COC(=O)O1 (configuration not stated)
label 0

Recorded test call requested for CCOC(=O)C(C)C(C)=O (configuration not stated)
label 0

Recorded test call requested for CCn1cc(C(=O)O)c(=O)c2cc(F)c(N3CCNC(C)C3)c(F)c21 (configuration not stated)
label 0

Recorded test call requested for `c1cnc2cc3c(cc2n1)C1CNCC3C1`
label 0

====

Target: Glucocorticoid receptor (Homo sapiens) (UniProt P04150)
Sequence (P04150 whole entry, looked up): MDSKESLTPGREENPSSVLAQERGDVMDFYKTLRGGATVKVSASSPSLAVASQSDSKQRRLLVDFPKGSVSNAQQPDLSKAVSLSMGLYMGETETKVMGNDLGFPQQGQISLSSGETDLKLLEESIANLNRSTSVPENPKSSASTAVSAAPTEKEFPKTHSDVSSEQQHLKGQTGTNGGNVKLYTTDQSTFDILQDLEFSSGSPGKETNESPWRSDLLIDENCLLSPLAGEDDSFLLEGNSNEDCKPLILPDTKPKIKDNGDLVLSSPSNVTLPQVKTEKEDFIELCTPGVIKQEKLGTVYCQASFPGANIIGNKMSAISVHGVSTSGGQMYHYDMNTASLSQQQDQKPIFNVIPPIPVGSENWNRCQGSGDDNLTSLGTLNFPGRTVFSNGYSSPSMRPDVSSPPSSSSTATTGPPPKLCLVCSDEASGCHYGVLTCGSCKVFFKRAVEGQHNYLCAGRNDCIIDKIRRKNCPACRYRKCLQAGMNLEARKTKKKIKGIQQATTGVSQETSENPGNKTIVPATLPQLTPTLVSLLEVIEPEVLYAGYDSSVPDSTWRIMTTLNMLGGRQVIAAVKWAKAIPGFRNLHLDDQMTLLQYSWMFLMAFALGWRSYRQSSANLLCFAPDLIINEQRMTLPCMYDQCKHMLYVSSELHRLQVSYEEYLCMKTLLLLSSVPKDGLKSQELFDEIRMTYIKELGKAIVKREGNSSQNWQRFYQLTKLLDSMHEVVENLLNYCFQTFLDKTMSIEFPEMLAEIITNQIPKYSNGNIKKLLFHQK
Test: qHTS assay to identify small molecule antagonists of the glucocorticoid receptor (GR) signaling pathway (AID 720692)
Details: GR-bla HeLa, beta-lactamase FRET ratio, dexamethasone-stimulated, 18 h; series mostly up to 58.5 µM
Inconclusive results are not listed. Calls of active or inactive are those of the source. Calls follow the shape of the dose curve; as a rule, active = well fitted inhibition curve with a large enough effect in the signal ratio in the repeat runs (not every such curve was filed as active); inconclusive = weak or mixed curves, or effect the other way; inactive = no such curve, though single readings can be large or run the other way; the % refers to the signal ratio. Starred links: 1 amine or outer side, 2 acyl side, 3 side chain; linkers in the order of their positions; H or OH if unused. Positions of bridges follow the written chain, without caps; N, C: chain ends. Non-standard residues stand in square brackets, D forms with d. Residues, ends and D or L forms follow the SMILES beside them. Chains are numbered I, II in the order given. Actinocin(9to1) = Cc1c2oc3c(C)ccc(C(=O)[*:1])c3nc-2c(C(=O)[*:2])c(N)c1=O; NMeV = CN[C@H](C(=O)O)C(C)C; Sar = CNCC(=O)O
Bench note: report the call from active, inactive

O=C(OCc1ccccc1)c1ccc(O)cc1 :: inactive
Cc1c2oc3c(C)ccc(C(=O)N[C@@H]4C(=O)N[C@H](C(C)C)C(=O)N5CCC[C@H]5C(=O)N(C)CC(=O)N(C)[C@@H](C(C)C)C(=O)O[C@@H]4C)c3nc-2c(C(=O)N[C@@H]2C(=O)N[C@H](C(C)C)C(=O)N3CCC[C@H]3C(=O)N(C)CC(=O)N(C)[C@@H](C(C)C)C(=O)O[C@@H]2C)c(N)c1=O (I: T[dV]P[Sar][NMeV] / II: T[dV]P[Sar][NMeV]; ester I:1-I:C, II:1-II:C; linker I:N-II:N via Actinocin(9to1)) :: active

Recorded test call requested for `Nc1cc(S(=O)(=O)O)cc2cc(S(=O)(=O)O)cc(O)c12`
inactive

Recorded test call requested for CCN(CC)C(=O)Nc1ccc(OCC(O)CNC(C)(C)C)c(C(C)=O)c1 (centres undefined)
inactive
